// provenance: the RNAGym collection of RNA variant scans (doi:10.7554/elife.80360)

For each entry below, report its self-cleavage value.
B1: HDV Ribozyme (parent)
chain: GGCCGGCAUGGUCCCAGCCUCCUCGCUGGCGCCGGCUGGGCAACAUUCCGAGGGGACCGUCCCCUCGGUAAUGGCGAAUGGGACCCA

Variants of: B1
METHOD_DESCRIPTION: self-cleavage, relative activity (ratio to wild type); higher = more cleavage; co-transcriptional
Answer using only a numeral; do not append any unit.

May I ask what self-cleavage has been recorded for C15A G67A ?
0.499

May I ask what self-cleavage has been recorded for U27G C41G ?
0.802

May I ask what self-cleavage has been recorded for C7G C66G ?
0.214

May I ask what self-cleavage has been recorded for U20A G52C ?
0.0449

May I ask what self-cleavage has been recorded for C14U G38U ?
0.271

May I ask what self-cleavage has been recorded for G2U U79G ?
0
